melting point by entry:

Study these solved cases before continuing.
[in] I have this molecule here, Clc1ccc(CN2CCN(c3ncc4ccccc4n3)CC2)cc1.O=C(O)C(=O)O , and I need its recorded melting point.
[out] 207 to 209 °C

[in] Fill in the blank: the reported melting point of Br.Cc1nc2ccccc2nc1N1CCN(Cc2ccc(Cl)cc2)CC1 is ____.
[out] 293 to 295 °C

[in] Endpoint output: melting point of Br.Cc1cc(N2CCN(Cc3ccc(Cl)cc3)CC2)nc2c(C)cccc12 . Value?
[out] 262 to 264 °C

[in] Reported melting point, molecule FC(F)(F)Oc1ccc(CN2CCN(c3ccc4ccccc4n3)CC2)cc1 [Example 3(l)] : ____
[out] 109 to 110 °C

[in] Name the reported melting point value associated with the molecule Br.Fc1ccc(CN2CCN(c3ccc4ccccc4c3)CC2)cc1
[out] 244 to 246 °C

---
[in] Using the record for Br.Clc1ccc(CN2CCN(c3ccc4ccccc4n3)CC2)cc1Cl , report its melting point.
[out] 285 to 287 °C

[in] // query melting point value for entry Br.Fc1ccccc1CN1CCN(c2ccc3ccccc3c2)CC1
[out] 239 to 240 °C
